# target.or.test.system: human apelin receptor (Homo sapiens, UniProt P35414)
# Construct: expressed in transfected cells
# Sequence (P35414 whole entry): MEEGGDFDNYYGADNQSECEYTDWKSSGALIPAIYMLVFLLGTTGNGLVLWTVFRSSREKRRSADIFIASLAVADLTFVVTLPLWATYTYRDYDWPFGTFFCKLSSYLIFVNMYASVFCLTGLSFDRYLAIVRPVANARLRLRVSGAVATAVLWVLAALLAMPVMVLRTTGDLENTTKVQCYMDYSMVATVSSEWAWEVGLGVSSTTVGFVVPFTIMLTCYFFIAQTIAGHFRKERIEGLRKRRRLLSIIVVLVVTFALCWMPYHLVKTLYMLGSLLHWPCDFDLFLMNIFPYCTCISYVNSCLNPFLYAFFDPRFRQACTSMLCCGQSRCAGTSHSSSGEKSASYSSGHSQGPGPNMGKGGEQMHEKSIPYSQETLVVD
# experimental.details: Determination of agonism on the human apelin receptor by a calcium fluorescence assay (FLIPR)
# Format: cell-based
# measurement.parameters: HEK293 cells stably transfected with human apelin receptor and Giaq protein, Fluo-4 calcium fluorescence, read-out: EC50 (APJ agonism)
pEC50: −log10 of the molar value.
Please use Y whenever pEC50 is not below 6, and N whenever it is.

Worked examples follow.
compound	qualitative.label
CCC(CC)n1c(Cc2cccs2)nc2cc(C(=O)N[C@@H](CC(C)C)C(=O)N3CC4CC3CN4Cc3ccc(OC)cc3)ccc21 (some centres unmarked) [Example 351]	N
CCC(C)[C@H](NC(=O)c1ccc2c(c1)nc(Cc1cccs1)n2C(CC)CC)C(=O)O (some centres unmarked) [Example 121]	Y
CCC(CC)n1c(Cc2cccs2)nc2cc(C(=O)N[C@@H](CC(C)C)C(=O)N(CCOC)CCOC)ccc21 [Example 363]	N
CCC(CC)n1c(Cc2cscn2)nc2cc(C(=O)N[C@H](CO)CC(C)C)ccc21 [Example 205]	N
CCC(CC)n1c(Cc2cccs2)nc2cc(C(=O)N[C@@H](CC(C)C)C(=O)N[C@@H](C)c3ccccc3F)ccc21 [Example 262]	N
CCC(CC)n1c(CC2CCCC2)nc2cc(C(=O)N[C@@H](CO)CC(C)C)ccc21 [Example 176]	N
CCC(CC)n1c(Cc2cccs2)nc2cc(C(=O)NC(CC3CCC(C)(C)CC3)C(=O)O)ccc21 (single isomer, unassigned) [Example 445]	N
C[C@H]1CCCC[C@@H]1n1c(Cc2cccs2)nc2cc(C(=O)NC(CC(=O)O)CC3CCCCC3)ccc21 (some centres unmarked) [Example 52]	N
O=C(O)C[C@H](Cc1ccccc1)NC(=O)c1ccc2c(c1)nc(Cc1cccs1)n2C1CCCCC1C(F)(F)F (some centres unmarked) [Example 103]	N
CC(C)C[C@@H](CC(=O)O)NC(=O)c1ccc2c(c1)nc(Cc1cccs1)n2C1CCCCC1C (some centres unmarked) [Example 101]	Y

Enquiry: Is reported pEC50 greater than or equal to 6 here: CCC(CC)n1c(Cc2cccs2)nc2cc(C(=O)N[C@@H](CC(C)C)C(=O)NC3CCN(c4ccccn4)CC3)ccc21 [Example 293]
Return: N

Enquiry: Is reported pEC50 greater than or equal to 6 here: CCc1ccc(CC(NC(=O)c2ccc3c(c2)nc(Cc2cccs2)n3C(CC)CC)C(=O)O)cc1 (centres unmarked) [Example 30]
Return: N

Enquiry: Is reported pEC50 greater than or equal to 6 here: CCC(CC)n1c(Cc2cccs2)nc2cc(C(=O)N[C@H](C(=O)O)[C@H](C)CC)ccc21 [Example 153]
Return: Y

Enquiry: Is reported pEC50 greater than or equal to 6 here: CC(C)C[C@H](NC(=O)c1ccc2c(c1)nc(Cc1cccs1)n2C1CCCC1C)C(=O)O (single isomer, unassigned) [Example 428]
Return: Y

Enquiry: Is reported pEC50 greater than or equal to 6 here: CCC(CC)n1c(Cc2cccs2)nc2cc(C(=O)NC(CC(=O)O)CC(C)(C)C)ccc21 (centres unmarked) [Example 47]
Return: N

Enquiry: Is reported pEC50 greater than or equal to 6 here: CCC(CC)n1c(Cc2cccs2)nc2cc(C(=O)N[C@H](CC(=O)O)Cc3ccccc3)ccc21 [Example 100]
Return: N

Enquiry: Is reported pEC50 greater than or equal to 6 here: CCC(CC)n1c(Cc2cccs2)nc2cc(C(=O)N[C@H](CCC(=O)O)[C@@H](C)CC)ccc21 [Example 71]
Return: Y

Enquiry: Is reported pEC50 greater than or equal to 6 here: CCC(CC)n1c(Cc2cccs2)nc2cc(C(=O)N[C@@H](CC(C)C)C(=O)NCCN3CCOCC3)ccc21 [Example 231]
Return: Y

Enquiry: Is reported pEC50 greater than or equal to 6 here: CC(C)C[C@@H](CCC(=O)O)NC(=O)c1ccc2c(c1)nc(Cc1cccs1)n2C1CCCCC1C(F)(F)F (some centres unmarked) [Example 69]
Return: Y

Enquiry: Is reported pEC50 greater than or equal to 6 here: CCC(CC)n1c(Cc2cccs2)nc2cc(C(=O)N[C@@H](Cc3ccc(F)cc3)C(=O)O)ccc21 [Example 19]
Return: N

Enquiry: Is reported pEC50 greater than or equal to 6 here: CCC(CC)n1c(Cc2cccs2)nc2cc(C(=O)N[C@@H](CCC(C)C)C(=O)O)ccc21 [Example 130]
Return: Y

Enquiry: Is reported pEC50 greater than or equal to 6 here: CC(C)C[C@H](NC(=O)c1ccc2c(c1)nc(Cc1cccs1)n2CC(C)C)C(=O)O [Example 127]
Return: N

Enquiry: Is reported pEC50 greater than or equal to 6 here: CCC(CC)n1c(Cc2cccs2)nc2cc(C(=O)N[C@@H](CC(C)C)C(=O)NCCCN3CCN(Cc4c(F)cccc4Cl)CC3)ccc21 [Example 277]
Return: N

Enquiry: Is reported pEC50 greater than or equal to 6 here: CCC(CC)n1c(Cc2cccs2)nc2cc(C(=O)N[C@@H](CC(C)C)C(=O)NCCCCN(CC)CC)ccc21 [Example 261]
Return: Y

Enquiry: Is reported pEC50 greater than or equal to 6 here: CC(C)C[C@@H](CC(=O)O)NC(=O)c1ccc2c(c1)nc(Cc1cccs1)n2C1CCCC1C (some centres unmarked) [Example 104]
Return: Y

Enquiry: Is reported pEC50 greater than or equal to 6 here: CCC(CC)n1c(Cc2cccs2)nc2cc(C(=O)NC(CC3CCC(C)(C)CC3)C(=O)O)ccc21 (centres unmarked) [Example 29]
Return: N

Enquiry: Is reported pEC50 greater than or equal to 6 here: Cc1ccc(Cc2nc3cc(C(=O)N[C@@H](CC(C)C)C(=O)O)ccc3n2C2CCCCC2C)s1 (some centres unmarked) [Example 144]
Return: N
